// provenance: patent US9035071B2

Assignment: determine reported Kb for the given molecules.
- measured_on: human recombinant prostanoid IP receptor (Homo sapiens, UniProt P43119)
- Construct: expressed in transfected cells
- Sequence (P43119 whole entry): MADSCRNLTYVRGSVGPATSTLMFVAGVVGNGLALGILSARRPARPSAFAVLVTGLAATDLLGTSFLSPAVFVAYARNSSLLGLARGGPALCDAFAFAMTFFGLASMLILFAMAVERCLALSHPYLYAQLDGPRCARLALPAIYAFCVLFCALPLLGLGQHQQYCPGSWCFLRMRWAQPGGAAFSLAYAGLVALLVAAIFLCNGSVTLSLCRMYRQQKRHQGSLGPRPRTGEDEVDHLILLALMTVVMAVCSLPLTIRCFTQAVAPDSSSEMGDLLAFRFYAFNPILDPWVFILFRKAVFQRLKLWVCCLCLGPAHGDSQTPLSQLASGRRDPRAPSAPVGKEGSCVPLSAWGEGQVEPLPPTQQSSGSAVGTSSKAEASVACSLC
- assay: FLIPR Ca2+ signaling, PG antagonist activity, IP
- Type: cell-based
- protocol_conditions: antagonism of standard agonist Cicaprost, HEK-293 EBNA stable cells

Requested read-out: Kb. Entry: CCC(CC)COc1ccc(C(F)(F)F)cc1Cn1cc(C(=O)O)c(C)n1
≥ 10 µM

Requested read-out: Kb. Entry: CCC(CC)COc1ccc(OC(F)(F)F)cc1Cn1ncc(C(=O)O)c1C
≥ 10 µM

Requested read-out: Kb. Entry: CCCc1nn(Cc2cc(Cl)ccc2OCC(CC)CC)cc1C(=O)O
≥ 10 µM

Requested read-out: Kb. Entry: CCC(CC)COc1ccc(C(F)(F)F)cc1Cn1ncc(C(=O)O)c1C
≥ 10 µM

Requested read-out: Kb. Entry: Cc1c(C(=O)O)cnn1Cc1cc(Br)ccc1OCC(C)(C)C
≥ 10 µM
